Test system: Plasmodium falciparum Sir2 (PF13_0152, Sir2A)
Assay: Plasmodium falciparum Sir2A binding compounds – biochemical, small-molecule microarray, 635 nm fluorescence, primary screen (AID 1098);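 note: score merges spot fluorescence intensity with its signal-to-noise ratio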
Details: fluorescence 635 nm, higher = more signal
Quick list: composite z-score per entry.

Molecule	composite z-score
CC1CC/C=C\[C@H]2OC34C=CCN(Cc5ccccc5)C(=O)[C@H]3N(C(CO)C(C)C)C(=O)[C@@H]4C2C(=O)O1 (some centres undefined)	0.659
O=C1OCCC/C=C\[C@H]2OC34C=CCN(c5ccc6ccccc6c5)C(=O)[C@H]3N(CCO)C(=O)[C@@H]4C12 (some centres undefined)	1.32
[N-]=[N+]=Nc1ccccc1[C@@H]1OC(c2ccc(OCCCO)cc2)=N[C@]1(Cc1ccccc1)C(=O)O	0.77
CCCCCN1CC=CC23O[C@@H]4/C=C\CCC(C)OC(=O)C4[C@H]2C(=O)N(C(CO)C(C)C)[C@@H]3C1=O (some centres undefined)	1.63
C=CC[C@]1(C(=O)N2CCOCC2)COC(c2ccc(OCCCO)cc2)=N1	1.76
COc1ccccc1CN1C(=O)c2ccccc2[C@](Cc2ccccc2I)(C(=O)O)[C@@H]1c1ccc(CO)cc1	1.19
COc1ccc([Si](C)(C)[C@@H]2[C@@H](CC(=O)N(CCO)Cc3ccccc3)O[C@]3(C(=O)N(Cc4cccc(N5CCCCC5=O)c4)c4ccccc43)[C@H]2C)cc1	1.16
COc1ccc(C(=O)Nc2ccc(CN3C(=O)[C@]4(O[C@H](CC(=O)N5Cc6ccccc6C[C@H]5CO)[C@@H]([Si](C)(C)c5ccc(OC)cc5)[C@@H]4C)c4ccccc43)cc2)cc1	1.57
COCCOC(=O)N1C(=O)[C@@]2(c3cc(C#CC4=CCCCC4)ccc31)[C@H](C(=O)Nc1nc3ccccc3s1)[C@H]1C(=O)O[C@H](c3ccccc3)[C@H](c3ccccc3)N1[C@@H]2c1ccc(O)cc1	0.61
C=C(/C(=C/C[C@H](OC(=O)c1ccncc1)c1ccc(CO)o1)c1cnc2ccccc2c1)C(C)C	0.614
COc1ccc([Si](C)(C)[C@@H]2[C@@H](CC(=O)N3CCC[C@H]3CO)O[C@]3(C(=O)N(Cc4cccc(N5C(=O)COc6ccccc65)c4)c4ccccc43)[C@H]2C)cc1	0.911
COC(=O)[C@@]1(Cc2ccccc2)[C@H]2c3cc(C(=O)N(C)C)n(Cc4ccc(C)o4)c3C[C@H]2CN1C(=O)c1ccccc1	0.527
O=C1O[C@H](c2ccccc2)[C@H](c2ccccc2)N2[C@H]1[C@@H](C(=O)O)[C@]1(C(=O)Nc3ccc(C#CCCO)cc31)[C@H]2c1ccccc1OCCO	0.582
C=CCC(OC(C)=O)[C@@H]1[C@@H](N(Cc2ccc(-c3cccc(C(F)(F)F)c3)o2)C(=O)c2ccc(-c3ccccc3)cc2)c2cc(OCCCO)ccc2N1C(=O)Cc1ccc2ccccc2c1 (some centres undefined)	-0.417

---

Test system: Neuregulin-1 EGF-like domain
Test: small molecules binding NRG1 EGF domain – biochemical, small-molecule microarray, 635 nm fluorescence, primary screen (AID 1081);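 note: binding of the protein to compounds printed on small-molecule microarray slides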
Settings: higher = more signal
Classify by measured composite z-score: rule met if it is equal to or exceeds 0.4, rule not met if it is smaller.

Compound	Qualitative Label
C=CC[C@@H](OC(=O)Nc1ccc(OC)cc1)c1ccc(O)c(F)c1	rule met
CC(=O)N1CC2(CC2)CC1c1ccccc1 (stereo not drawn)	rule met
O=C(C1N=C(c2ccc(OCCCO)cc2)N(c2ccccc2)O1)N1CCCCC1 (stereo not drawn)	rule met
CCCCC=C[C@@H](NC(=O)OCc1ccccc1Cl)c1ccccc1	rule met
CCOC(=O)C[C@H]1[C@H](OC(=O)c2ccc(C(=O)c3ccccc3)cc2)[C@@H](NC(=O)c2ccc3ccccc3n2)c2cc(OCCCO)ccc2N1C(=O)Cc1ccc(OC)cc1	rule not met
O=C1C2C=CC(C(O)c3ccco3)N(Nc3ccccc3F)C2C(=O)N1c1ccccc1 (stereo not drawn)	rule met
CC(C)C[C@@H]1NC(=O)[C@@H]2C[C@H](C(=O)NCCCCCCN)[C@H](c3cccc(OCCO)c3)N2C1=O	rule met
C=CCC(OC(C)=O)[C@@H]1[C@@H](N(Cc2ccc(-c3cccc(C(F)(F)F)c3)o2)C(=O)Cc2ccc(OC)cc2)c2cc(OCCCO)ccc2N1C(=O)c1ccc(-c2ccccc2)cc1 (stereo partly drawn)	rule not met

---

System: wheat germ agglutinin (Triticum aestivum), Alexa647-labelled
Assay: Alexa647-WGA lectin binding to printed small molecules – biochemical, small-molecule microarray, 635/667 nm fluorescence, artefact control for SMM control-protein annotation, profiling panel (AID 1140);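 note: score merges 667 nm feature emission with signal to noise over triplicate slides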
Conditions: WGA-A647 binding, 635 nm fluorescence, higher = more signal
Quick list: composite z-score per entry.
Endpoint: composite z-score

> print(dat)
                      smiles.representation  experimental.value
1  CCCNC(=O)[C@@H]1c2ccccc2C(=O)N(Cc2ccc(OC(F)(F)F)cc2)[C@H]1c1ccc(CO)cc1              0.0988
2  NC(=O)[C@H]1[C@@H]2C(=O)O[C@@H](c3ccccc3)[C@@H](c3ccccc3)N2[C@@H](c2ccc(OCCO)cc2)[C@]12C(=O)Nc1ccc(C#CCCO)cc12                 0.9
3  CCCCNC(=O)c1ccc(C#CC(C)(C)C)c(OC(C)=O)c1                0.64
4  CCCC=C(CCC)[C@@H](NC(=O)c1cccs1)c1ccc(C(=O)OC)cc1              -0.119

---

System: wheat germ agglutinin (Triticum aestivum), Alexa647-labelled
Test: Alexa647-WGA lectin binding to printed small molecules – biochemical, small-molecule microarray, 635/667 nm fluorescence, artefact control for SMM control-protein annotation, profiling panel (AID 1140);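 note: score merges 667 nm feature emission with signal to noise over triplicate slides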
Details: WGA-A647 binding, 635 nm fluorescence, higher = more signal
Recorded composite z-score for the following compounds

Smiles Representation	Target Entity	composite z-score
CCOC(=O)C=Cc1cccc(C)c1O	wheat germ agglutinin (Triticum aestivum), Alexa647-labelled	-0.399
O=C1N(Cc2ccccc2)c2ccccc2C[C@]12N=C(c1ccc(OCCCO)cc1)O[C@@H]2c1ccccc1	wheat germ agglutinin (Triticum aestivum), Alexa647-labelled	0.186
CC(C)N1C(=O)c2ccccc2[C@@H](C(=O)NCCN2CCOCC2)[C@@H]1c1ccc(CO)cc1	wheat germ agglutinin (Triticum aestivum), Alexa647-labelled	-1.23
O=C(O)[C@@H]1[C@@H]2C(=O)N(c3ccccc3)C(=O)[C@@H]2C[C@@H]1Sc1ccccc1	wheat germ agglutinin (Triticum aestivum), Alexa647-labelled	0.627
CCCC[C@@H](O)C1=C(COC)C[C@H]2C(=O)N(Cc3ccccc3)C(=O)[C@H]2[C@H]1CO	wheat germ agglutinin (Triticum aestivum), Alexa647-labelled	1.13
COCCOC(=O)N1C(=O)[C@@]2(c3cc(C#CC4=CCCCC4)ccc31)[C@H](C(=O)Nc1nc3ccccc3s1)[C@H]1C(=O)O[C@H](c3ccccc3)[C@H](c3ccccc3)N1[C@@H]2c1ccc(O)cc1	wheat germ agglutinin (Triticum aestivum), Alexa647-labelled	0.529
COc1ccc(C#Cc2ccc3c(c2)[C@]2(C(=O)N3)[C@H](c3ccc(O)cc3)N3[C@H](c4ccccc4)[C@H](c4ccccc4)OC(=O)[C@H]3[C@@H]2C(=O)Nc2nc3ccccc3s2)cc1	wheat germ agglutinin (Triticum aestivum), Alexa647-labelled	0.768
COc1cc2c(cc1O)C=[N+](Cc1sc3ccccc3c1Cl)CC2	wheat germ agglutinin (Triticum aestivum), Alexa647-labelled	0.311

---

Assay: growth of efflux-deficient E. coli DRC39 – strain DRC39, OD650, 48 h, E. coli filamentation inducers, primary screen (AID 1179);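 note: screen aims at cell division blockers that make cells filament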
Details: E. coli DRC39 delta-acrAB growth, higher = more signal, called active from +8 up or from −8 down

Molecule	z-score
COc1ccc([Si](C)(C)[C@H]2[C@H](CC(=O)N(CCO)Cc3ccccc3)O[C@@]3(C(=O)N(C)c4c(Br)cc(C)cc43)[C@@H]2C)cc1	0.677
CC(C)=C1C(=O)C(c2ccccc2)=C2CN3C(=O)N(CCc4ccccc4)C(=O)[C@]3(Cc3ccc(C(F)(F)F)cc3)[C@H]21	-0.633
COC(=O)C/C=C/C[C@]1(O)C(=O)N(C)c2ccccc21	0.875
CCCC#C[Si](O[C@H](CC)c1cn([C@H](C)c2ccccc2)nn1)(C(C)C)C(C)C	1.06
CCOC(=O)[C@@H]1CCCCN1C(=O)C(=O)OC	-0.253
COC(=O)C1=CC(CCCO)=CC(c2ccc(CN3CCCC3)cc2)N(Cc2cccc(OC(F)(F)F)c2)C=C1C(=O)OC (stereo unspecified)	0.701
[N-]=[N+]=NCc1ccccc1[C@@H]1OC(c2ccc(OCCCO)cc2)=N[C@]1(CCS(=O)(=O)c1ccccc1)C(=O)O	0.0549
Cn1cccc1C(O)C1C=CC2C(=O)N(c3ccccc3)C(=O)C2N1Nc1ccccc1 (stereo unspecified)	0.881
CCCCN1CC=CC23O[C@@H]4/C=C\CCCOC(=O)C4[C@H]2C(=O)N(CCO)[C@@H]3C1=O (stereo partly specified)	-0.389
COCCOC(=O)N1C(=O)[C@@]2(c3cc(C#CC4(O)CCCCCC4)ccc31)[C@H](C(=O)Nc1nc3ccccc3s1)[C@H]1C(=O)O[C@H](c3ccccc3)[C@H](c3ccccc3)N1[C@@H]2c1ccc(O)cc1	0.613
CC(C)N1C(=O)c2ccccc2[C@@H](C(=O)NCCN2CCOCC2)[C@@H]1c1ccc(CO)cc1	-0.434
CCOC(=O)C[C@H]1[C@H](OC(=O)c2ccc(C(=O)c3ccccc3)cc2)[C@@H](NC(=O)c2ccc(-c3ccccc3)cc2)c2cc(OCCCO)ccc2N1C(=O)Cc1ccc(OC)cc1	0.424
CCOC(=O)C[C@H]1[C@H](OC(=O)c2ccc(-c3ccccc3)cc2)[C@@H](NC(=O)CC(C)C)c2cc(OCCCO)ccc2N1C(=O)c1ccc2ccccc2n1	0.327
COC(=O)[C@@]1(Cc2ccccc2)[C@H]2c3cc(C(=O)N4CCCC4)n(CCc4ccccn4)c3C[C@H]2CN1C(=O)c1ccccc1	-0.906
CCCC1(C(=O)OC)C=C2C(=C(C)C(=O)C2C)CN1 (stereo unspecified)	0.0101
C=C[C@H]1C(C(=O)OCC)=CC[C@@H](c2ccccc2)N1S(=O)(=O)c1ccc(C)cc1	-0.183
